Can you tell me normalized MFI for the items I'm about to list?
molecular target: T1, huIL-17RA-FLAG-polyHis (human, UniProt Q96F46 33-320); assay: binning; IL-17RA held by bead mAb G
T1 construct: also called IL-17RA-FLAG-pHis; wild-type IL-17RA
Give bare numbers.

binder	normalized MFI
AMH10/AML10 (antibody, IgG2, V domains shown, human mAb from IgG2 XenoMouse mice; also called AM-10; antibody F) VH: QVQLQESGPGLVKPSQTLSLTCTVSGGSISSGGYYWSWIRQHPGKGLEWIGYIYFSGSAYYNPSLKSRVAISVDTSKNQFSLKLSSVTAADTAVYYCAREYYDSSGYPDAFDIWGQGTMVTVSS VL: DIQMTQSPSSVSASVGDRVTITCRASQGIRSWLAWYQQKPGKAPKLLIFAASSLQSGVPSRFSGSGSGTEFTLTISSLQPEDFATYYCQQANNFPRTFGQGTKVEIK	342

Given item AMH7/AML7 (antibody, IgG2, V domains shown, human mAb from IgG2 XenoMouse mice; also called AM-7; antibody D) VH: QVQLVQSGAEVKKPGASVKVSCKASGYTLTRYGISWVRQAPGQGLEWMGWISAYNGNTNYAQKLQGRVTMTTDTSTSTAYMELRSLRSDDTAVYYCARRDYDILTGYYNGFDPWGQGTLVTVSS VL: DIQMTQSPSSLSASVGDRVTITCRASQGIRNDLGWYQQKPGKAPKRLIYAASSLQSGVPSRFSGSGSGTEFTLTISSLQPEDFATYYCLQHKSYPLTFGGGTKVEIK , the value recorded as its normalized MFI is 318
